Each recorded value in this set is attributed to patent US4070458A.

System: enzyme which decomposes R-Val-Val-X-Ala-X to Val-X-Ala-X
assay comment: Effect of various inhibitors and metal ions on the enzyme activity
Format: biochemical, Bacillus sphaericus ATCC 14577
condition description: Concentration 2 mM; Control (No Addition) 100
observable: Relative activity
Quick one: just the number, no unit, thanks!

stdin: Provide measured Relative activity value, entry: O=C(O)CN(CCN(CC(=O)O)CC(=O)O)CC(=O)O
stdout: 30

stdin: Provide measured Relative activity value, entry: c1cnc2c(c1)ccc1cccnc12
stdout: 0

stdin: Provide measured Relative activity value, entry: [Cl][Co][Cl] [Cobalt Chloride]
stdout: 134

stdin: Provide measured Relative activity value, entry: O[C@H](CS)[C@H](O)CS (racemic)
stdout: 0

stdin: Provide measured Relative activity value, entry: O=C1CCC(=O)N1Br [N-Bromosuccinimide]
stdout: 0

stdin: Provide measured Relative activity value, entry: OCCS
stdout: 0

stdin: Provide measured Relative activity value, entry: [Cl-].[Cl-].[Zn+2] [Zinc Chloride]
stdout: 66
